System: B cell receptor-mediated activation of B cells in human blood
Test: Inhibition of B cell activation in whole blood measured by CD69 expression
Format: cell-based
Settings: anti-IgM stimulation, 20 hours, CD69-positive cells that are also CD20-positive, read-out: HWB IC50
Procedure: A procedure to test the ability of Btk inhibitors to suppress B cell receptor-mediated activation of B cells in human blood is as follows: […] Using appropriate excitation and emission wavelengths for the fluorophores used, data are acquired and percent positive cell values are obtained using Cell Quest Software. Results are initially analyzed by FACS analysis software (Flow Jo). […] The IC50 values are calculated using XLfit software version 3, equation 201.
Reported Metric: log10(IC50) (log10 of the value in µM)

>>> result("CC(C)(C)c1cc(F)c2c(=O)n(-c3cccc(-c4cc(Nc5ccc(C(=O)N6CCOCC6)cn5)ncn4)c3CO)ncc2c1")
0.40
>>> result("CC(C)(C)c1cc(F)c2c(=O)n(-c3cccc(-c4cc(Nc5ccc(C(=O)N6CCOCC6)cn5)c5nccn5n4)c3CO)ncc2c1")
-1.11
>>> result("CN1CCC(c2ccc(Nc3nc(-c4cccc(-n5ncc6cc(C(C)(C)C)cc(F)c6c5=O)c4CO)cn4ccnc34)cc2)CC1")
0.36
>>> result("CN1CCN(Cc2ccc(Nc3cc(-c4cccc(-n5ncc6cc(C(C)(C)C)cc(F)c6c5=O)c4CO)nn4ccnc34)nc2)CC1")
-1.89
>>> result("CC(C)N1CCN(c2ccc(Nc3cc(-c4cccc(-n5ncc6cc(C(C)(C)C)cc(F)c6c5=O)c4CO)nn4ccnc34)nc2)CC1")
-1.40
>>> result("CC(C)(C)c1cc(F)c2c(=O)n(-c3cccc(-c4cn5ccnc5c(Nc5ccc(C(=O)N6CCOCC6)cc5)n4)c3CO)ncc2c1")
-0.95
>>> result("CC(C)(C)c1cc(F)c2c(=O)n(-c3cccc(-c4cc(Nc5ccc(C(=O)N6CCOCC6)cn5)c5ncnn5c4)c3CO)ncc2c1")
-0.46
>>> result("CN1CCC(c2ccc(Nc3cc(-c4cccc(-n5ncc6cc(C(C)(C)C)cc(F)c6c5=O)c4CO)cn4ccnc34)nc2)CC1")
-1.14
>>> result("CC(C)(C)c1cc(F)c2c(=O)n(-c3cccc(-c4cnnc(Nc5ccc(C(=O)N6CCOCC6)cn5)c4)c3CO)ncc2c1")
-0.05
>>> result("CC(C)(C)c1cc(F)c2c(=O)n(-c3cccc(-c4cc(Nc5ccc(C(=O)N6CCOCC6)cn5)c5nccn5c4)c3CO)ncc2c1")
-0.85
>>> result("CC(C)(C)c1cc(F)c2c(=O)n(-c3cccc(-c4ccnc(Nc5ccc(C(=O)N6CCOCC6)cn5)c4)c3CO)ncc2c1")
-0.32
>>> result("CC(C)(C)c1cc(F)c2c(=O)n(-c3cccc(-c4cc(Nc5ccc(C(=O)N6CCOCC6)cc5)c5nccn5c4)c3CO)ncc2c1")
0.02
